measurement-target: T1, Human GDF8 homodimer (mature human Growth and Differentiation Factor-8) (human, UniProt O14793 267-375)
T1 construct: also called hGDF8; myostatin
T1 sequence: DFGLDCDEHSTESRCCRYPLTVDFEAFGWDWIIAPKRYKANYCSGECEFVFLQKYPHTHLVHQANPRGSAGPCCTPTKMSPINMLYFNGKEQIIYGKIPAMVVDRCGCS
protocol-text: SPR, antibody captured, 25 nM antigen
pKd: −log10 of the molar value.
Rule: pKd under 9 gives NO, otherwise YES.

Decide: is the reported value of pKd for 21-E9 (antibody, V domains shown) VH: EVQLVQLGPGLVKPSETLSLTCTVSGGSISNSNYYWGWIRQPPGKGLEWIGTTYYSGTTYYNPSLKSRVTISVDTSKNQFSLKLSSVTAADTAVYYCARDYYDSSGYYYNWFDPWGQGTTVTVSS VL: AIQMTQSPSSLSASVGDRVTITCRASQDIRNDLGWYQQKPGKAPKRLIYAASSLQSGVPSRFSGSGSGTEFSLTLSSLQPEDFATYFCLQHHIYPWTFGQGTKVEIKR equal to or greater than 9?
YES

Decide: is the reported value of pKd for 1A2 (antibody, V domains shown, also called 1A2 mAb) VH: EVQLLESGGGLVQPGGSLRLSCAASGFTSITYAMSWVRQAPGKGLEWVSAISVSGTNTYYADSVKGRFTISRDKSKNMLYLQMNSLRAEDTAVYYCAKDLLHNWKYGTFDIWGQGTMVTVSS VL: EIVMTQSPATLSVSPGERATLSCRASQSVDSNLVWYQQKPGQVPRLLIYGASTRATGIPARFSGSGSGTEFTLTISSLQSEDFAVYYCQQYNKWPLTFGGGTKVEIK equal to or greater than 9?
YES

Decide: is the reported value of pKd for 3E2-1 (antibody, V domains shown) VH: QVQLQQWGAGLLKPSETLSLTCAVYGGSFSGYYWSWIRQPPGKGLEWIGEINHSGNTNYNPSLKSRVTISVDTSKNQFSLKLNSVTAADTAVYYCARREATVTPYFDYWGQGTLVTVSS VL: DIQLTQSPSFLSASVGDRVTITCWASQGISSYLAWYQQKPGKAPKLLIYAASTLQSGVPSRFSGSGSGTEFTLTISSLQPEDFATYYCQQLNSYPLTFGGGTKVEIK equal to or greater than 9?
NO

Decide: is the reported value of pKd for 21-E5 (antibody, V domains shown) VH: QVQLVESGPGLVKPSETLSLTCTVYGGSISSGNYYWGWIRQPPGKGLEWIGTIYYSGSAYYNPSLKSRVTMSVDTSKNQFSLKLSSVTAADTAVYYCVRDYYDSSGHYYNWFDPWGQGTTVTVSS VL: AIQMTQSPSSLSASVGDRVTITCRASQDIRHDLGWYQQKPGKAPKRLIYAASSLQSGVPSRFSGSGSGTEFTLTISSLQPEDFATYYCLQHNTYPWTFGQGTKVEIKR equal to or greater than 9?
YES
